- protocolSummary: Water solubility test (Japanese Pharmacopoeia solubility test method)
- Assay type: physicochemical
- measurementConditions: 20±5° C., dissolution in 30 min
measurementName: water (mL) to dissolve 1 g
Please give a number only; it is taken to be in mL.

Prompt: I am curious: what water (mL) to dissolve 1 g value has been reported for CCCCCCCCNC1=NC(C)(C)NC(NCc2ccc(C)cc2)=N1 [Comp. Ex. 2, reference compound] ?
Response: 50

Prompt: I am curious: what water (mL) to dissolve 1 g value has been reported for CCCCCCCCNC1=NC(C)(C)NC(NCc2ccc(Cl)cc2)=N1 [Comp. Ex. 1, reference compound] ?
Response: 110

Prompt: I am curious: what water (mL) to dissolve 1 g value has been reported for CCCCCCCCN(C)C1=NC(C)(C)NC(NCc2ccc(C)cc2)=N1 [Example 7, acetate] ?
Response: 0.9

* * *

- Test system: S. aureus ATCC 6538
- protocolSummary: Bactericidal activity test (MBC measurement)
- Format: cell-based, Staphylococcus aureus
- measurementConditions: Staphylococcus aureus, ATCC6538, 0.05 h; S. aureus ATCC 6538, action time 3 min; read-out: MBC
measurementName: MBC (µg/mL)
Please give a number only; it is taken to be in µg/mL.

Solved entries:
CC(=O)O.CCCCCCCCNC1=NC(C)(C)NC(N(CC)Cc2ccccc2)=N1 :: 18.8
CC(=O)O.CCCCCCCCCCCCNC1=NC(N2CCN(C)CC2)=NC(C)(C)N1 :: 12.5

As a next step, examine the compound that follows.
Prompt: Any idea what MBC came out for "CCCCCCCCCCCNC1=NC(C)(C)NC(N(C)Cc2ccc(N)cc2)=N1.Cl.Cl" on S. aureus ATCC 6538?
Response: 7.8
